Tested on: NCI-H460
Test: Antiproliferative activity against human NCI-H460 cells using 1% DMSO/water compound formulation after 72 hrs by MTT assay
Type: functional, cell-based
Conditions: NCI-H460, 72 h
Recorded measurements of IC50, one per entry
outcome-measure: IC50 (nM)

INSERT INTO assay_data (substance_smiles, target_or_test_system, outcome_measure, unit_symbol, value_reported) VALUES
  ('CCCCc1n(Cc2ccc3ccccc3c2)cc[n+]1Cc1ccc2ccccc2c1.[Br-]', 'NCI-H460', 'IC50', 'nM', 2620),
  ('CCc1n(Cc2ccc3ccccc3c2)cc[n+]1Cc1ccc2ccccc2c1.[Br-]', 'NCI-H460', 'IC50', 'nM', 920),
  ('CC(C)c1n(Cc2ccc3ccccc3c2)cc[n+]1Cc1ccc2ccccc2c1.[Br-]', 'NCI-H460', 'IC50', 'nM', 920),
  ('CCCc1n(Cc2ccc3ccccc3c2)cc[n+]1Cc1ccc2ccccc2c1.[Br-]', 'NCI-H460', 'IC50', 'nM', 1910),
  ('Clc1c(Cl)[n+](Cc2ccc3ccccc3c2)cn1Cc1ccc2ccccc2c1', 'NCI-H460', 'IC50', 'nM', 5000),
  ('Cc1n(Cc2ccc3ccccc3c2)cc[n+]1Cc1ccc2ccccc2c1.[Br-]', 'NCI-H460', 'IC50', 'nM', 2530);

###

Tested on: NCI-H322M
Assay: Growth inhibition of human NCI-H322M cells assessed as cell growth at 10 uM after 24 hrs by SRB assay relative to control
Assay type: functional
Settings: read-out: Activity
outcome-measure: growth at 10 µM (%)

INSERT INTO measurements (substance_smiles, value_reported) VALUES
  ('CCc1n(Cc2ccc3ccccc3c2)cc[n+]1Cc1ccc2ccccc2c1.[Br-]', 44.3),
  ('CCCc1n(Cc2ccc3ccccc3c2)cc[n+]1Cc1ccc2ccccc2c1.[Br-]', 23.2),
  ('CCCCc1n(Cc2ccc3ccccc3c2)cc[n+]1Cc1ccc2ccccc2c1.[Br-]', 23.3),
  ('Cc1n(Cc2ccc3ccccc3c2)cc[n+]1Cc1ccc2ccccc2c1.[Br-]', 48.9);

###

Recorded measurements of pIC50, one per entry
Tested on: A549
Experiment: Antiproliferative activity against human A549 cells using 10% 2-HPbetaCD compound formulation after 72 hrs by MTT assay
Assay type: functional, cell-based
Details: A549, 72 h
pIC50: −log10 of the molar value.
outcome-measure: pIC50

INSERT INTO results (substance_smiles, outcome_measure, value_reported) VALUES
  ('Cc1n(Cc2ccc3ccccc3c2)cc[n+]1Cc1ccc2ccccc2c1.[Br-]', 'pIC50', 5.46),
  ('CCCCc1n(Cc2ccc3ccccc3c2)cc[n+]1Cc1ccc2ccccc2c1.[Br-]', 'pIC50', 5.49),
  ('CCCc1n(Cc2ccc3ccccc3c2)cc[n+]1Cc1ccc2ccccc2c1.[Br-]', 'pIC50', 5.55),
  ('CCc1n(Cc2ccc3ccccc3c2)cc[n+]1Cc1ccc2ccccc2c1.[Br-]', 'pIC50', 5.63),
  ('CC(C)c1n(Cc2ccc3ccccc3c2)cc[n+]1Cc1ccc2ccccc2c1.[Br-]', 'pIC50', 5.67);

###

System: HCC827
Test: Antiproliferative activity against human HCC827 cells using 10% 2-HPbetaCD compound formulation after 72 hrs by MTT assay
Format: functional, cell-based
Conditions: HCC827, 72 h
Recorded measurements of IC50, one per entry
outcome-measure: IC50 (nM)

INSERT INTO measurements (substance_smiles, target_or_test_system, value_reported) VALUES
  ('Cc1n(Cc2ccc3ccccc3c2)cc[n+]1Cc1ccc2ccccc2c1.[Br-]', 'HCC827', 1980),
  ('CCCc1n(Cc2ccc3ccccc3c2)cc[n+]1Cc1ccc2ccccc2c1.[Br-]', 'HCC827', 1250),
  ('CC(C)c1n(Cc2ccc3ccccc3c2)cc[n+]1Cc1ccc2ccccc2c1.[Br-]', 'HCC827', 1140),
  ('CCc1n(Cc2ccc3ccccc3c2)cc[n+]1Cc1ccc2ccccc2c1.[Br-]', 'HCC827', 970),
  ('CCCCc1n(Cc2ccc3ccccc3c2)cc[n+]1Cc1ccc2ccccc2c1.[Br-]', 'HCC827', 2180);

###

Test system: NCI-H23
Assay: Growth inhibition of human NCI-H23 cells after 24 hrs by SRB assay
Format: functional
Settings: NCI-H23, 24 h
Recorded measurements of GI50, one per entry
outcome-measure: GI50

INSERT INTO results (substance_smiles, outcome_measure, value_reported) VALUES
  ('Cc1n(Cc2ccc3ccccc3c2)cc[n+]1Cc1ccc2ccccc2c1.[Br-]', 'GI50', '717 nM'),
  ('CCCCc1n(Cc2ccc3ccccc3c2)cc[n+]1Cc1ccc2ccccc2c1.[Br-]', 'GI50', '793 nM'),
  ('CCc1n(Cc2ccc3ccccc3c2)cc[n+]1Cc1ccc2ccccc2c1.[Br-]', 'GI50', '396 nM'),
  ('CCCc1n(Cc2ccc3ccccc3c2)cc[n+]1Cc1ccc2ccccc2c1.[Br-]', 'GI50', '521 nM');

###

Tested on: NCI-H460
Experiment: Antiproliferative activity against human NCI-H460 cells using 10% 2-HPbetaCD compound formulation after 72 hrs by MTT assay
Assay type: functional, cell-based
Details: NCI-H460, 72 h
pIC50: −log10 of the molar value.
outcome-measure: pIC50

INSERT INTO assay_data (substance_smiles, outcome_measure, value_reported) VALUES
  ('CCCCc1n(Cc2ccc3ccccc3c2)cc[n+]1Cc1ccc2ccccc2c1.[Br-]', 'pIC50', 5.61),
  ('CC(C)c1n(Cc2ccc3ccccc3c2)cc[n+]1Cc1ccc2ccccc2c1.[Br-]', 'pIC50', 6.07),
  ('Cc1n(Cc2ccc3ccccc3c2)cc[n+]1Cc1ccc2ccccc2c1.[Br-]', 'pIC50', 5.57),
  ('CCCc1n(Cc2ccc3ccccc3c2)cc[n+]1Cc1ccc2ccccc2c1.[Br-]', 'pIC50', 5.67),
  ('CCc1n(Cc2ccc3ccccc3c2)cc[n+]1Cc1ccc2ccccc2c1.[Br-]', 'pIC50', 6.00);

Recorded values, source ChEMBL document CHEMBL4002637.
